# Assay Target: human farnesoid X receptor (Homo sapiens, UniProt Q96RI1)
# Construct: CMX-farnesoid X receptor (full length human farnesoid X receptor); expressed in transfected cells; host or cells: CV-1 African Green Monkey Kidney cells
# Sequence (Q96RI1 1-472 isoform Q96RI1-2): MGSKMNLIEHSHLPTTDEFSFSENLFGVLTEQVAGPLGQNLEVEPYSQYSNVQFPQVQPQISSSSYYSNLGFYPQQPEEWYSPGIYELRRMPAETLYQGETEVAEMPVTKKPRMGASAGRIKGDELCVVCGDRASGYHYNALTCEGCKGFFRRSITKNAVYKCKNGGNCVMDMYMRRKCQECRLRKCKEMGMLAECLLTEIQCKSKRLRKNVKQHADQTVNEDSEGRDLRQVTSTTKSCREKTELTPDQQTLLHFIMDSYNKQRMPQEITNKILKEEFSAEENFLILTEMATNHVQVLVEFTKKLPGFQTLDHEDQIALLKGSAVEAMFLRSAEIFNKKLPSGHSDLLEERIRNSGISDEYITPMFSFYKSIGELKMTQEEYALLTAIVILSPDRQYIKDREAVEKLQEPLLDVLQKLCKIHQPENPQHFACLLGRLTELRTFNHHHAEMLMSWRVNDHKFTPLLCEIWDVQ
# Sequence (P19793 whole entry partner): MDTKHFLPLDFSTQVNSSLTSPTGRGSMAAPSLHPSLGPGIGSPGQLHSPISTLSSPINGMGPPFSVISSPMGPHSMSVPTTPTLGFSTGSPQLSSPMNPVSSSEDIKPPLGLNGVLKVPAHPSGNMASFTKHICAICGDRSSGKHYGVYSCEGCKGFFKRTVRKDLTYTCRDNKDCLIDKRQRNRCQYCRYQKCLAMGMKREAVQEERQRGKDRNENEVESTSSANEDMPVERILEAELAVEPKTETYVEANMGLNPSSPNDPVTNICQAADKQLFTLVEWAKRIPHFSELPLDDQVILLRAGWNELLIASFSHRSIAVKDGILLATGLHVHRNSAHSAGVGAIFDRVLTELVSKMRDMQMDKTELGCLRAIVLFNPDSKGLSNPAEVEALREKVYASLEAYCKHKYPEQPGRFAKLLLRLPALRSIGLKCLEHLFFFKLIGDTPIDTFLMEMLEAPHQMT
# Assay Protocol: FXR in vitro assays (farnesoid X receptor/ECREx7 co-transfection assay, TR-FRET assay), Table I
# Assay type: cell-based
# Test Conditions: agonist activity, one or more of the in vitro assays; read-out: EC50
pEC50: −log10 of the molar value.
Measured Metric: pEC50

>>> reported_value("CC(C)OC(=O)C1=CN(C(=O)N2CCCC(N(C)C)C2)CC(C)(C)c2c1[nH]c1ccccc21 (stereo not drawn) [Example 39]")
"6.00 to 7.00"
>>> reported_value("COc1ccc(C(=O)N2C=C(C(=O)OC(C)C)c3[nH]c4ccccc4c3C(C)(C)C2)cc1OC [Example 100]")
"7.00 to 8.00"
>>> reported_value("CC(C)OC(=O)C1=CN(C(=O)c2cc(CN3CCOCC3)ccc2F)CC(C)(C)c2c1[nH]c1ccccc21 [Example 155]")
"6.00 to 7.00"
>>> reported_value("CC(C)OC(=O)C1=CN(C(=O)c2cccc(C#N)c2)CC(C)(C)c2c1[nH]c1ccccc21 [Example 142]")
"7.00 to 8.00"
>>> reported_value("CC(C)OC(=O)C1=CN(C(=O)N2CCC(N3CCCC3)CC2)CC(C)(C)c2c1[nH]c1ccccc21 [Example 28]")
"5.00 to 6.00"
>>> reported_value("CC(C)OC(=O)C1=CN(C(=O)c2cccc(CN3CCN(C(=O)Nc4ccccc4)CC3)c2)CC(C)(C)c2c1[nH]c1ccccc21 [Example 184]")
"7.00 to 8.00"
>>> reported_value("CC(C)OC(=O)C1=CN(C(=O)c2ccc(F)cc2Cl)CC(C)(C)c2c1[nH]c1ccccc21 [Example 111]")
"7.00 to 8.00"
>>> reported_value("CC(C)OC(=O)C1=CN(C(=O)c2ccc(F)cc2C(F)(F)F)CC(C)(C)c2c1[nH]c1ccccc21 [Example 110]")
"7.00 to 8.00"
>>> reported_value("CCNC(=O)N1CCN(Cc2cccc(C(=O)N3C=C(C(=O)OC(C)C)c4[nH]c5ccccc5c4C(C)(C)C3)c2)CC1 [Example 185]")
"6.00 to 7.00"
>>> reported_value("CC(C)OC(=O)C1=CN(C(=O)c2ccc(C(F)(F)F)c(Cl)c2F)CC(C)(C)c2c1[nH]c1ccccc21 [Example 132]")
"6.00 to 7.00"
>>> reported_value("CC(C)OC(=O)C1=CN(C(=O)c2c(F)cccc2F)CC(C)(C)c2c1[nH]c1ccccc21 [Example 75]")
"8.00 to 9.00"
>>> reported_value("CC(C)OC(=O)C1=CN(C(=O)c2ccc(F)c(F)c2F)CC(C)(C)c2c1[nH]c1ccccc21 [Example 77]")
"8.00 to 9.00"
>>> reported_value("CCCN1CCN(C(=O)N2C=C(C(=O)OC(C)C)c3[nH]c4ccccc4c3C(C)(C)C2)CC1 [Example 31]")
"6.00 to 7.00"
>>> reported_value("CC(C)OC(=O)C1=CN(C(=O)N2CCN(C)CC2)CC(C)(C)c2c1[nH]c1ccc(F)cc21 [Example 32]")
"6.00 to 7.00"
>>> reported_value("CC(C)OC(=O)C1=CN(C(=O)c2ccc(Cl)cc2Cl)CC(C)(C)c2c1[nH]c1ccccc21 [Example 143]")
"7.00 to 8.00"
